Cotton bollworm Mortality (%) for assorted compounds
Tested on: cotton bollworms
Test: whole plant or invertebrate
Details: concentration 600 mg/kg
The figure you give is taken to be in %; do not add the unit.

Below are worked cases with known answers.
C[C@@H]1N[C@H](C(=O)NN=Cc2ccc([N+](=O)[O-])cc2)Cc2c1[nH]c1ccccc21 :: 35
C[C@@H]1N[C@H](C(=O)NN=Cc2ccc3cc(O)ccc3c2)Cc2c1[nH]c1ccccc21 :: 35
Cc1nc(/C=C/C(=O)O)cc2c1[nH]c1ccccc12 :: 30
C[C@@H]1N[C@H](C(=O)NN=Cc2ccc(Cl)cc2)Cc2c1[nH]c1ccccc21 :: 25
C[C@@H]1N[C@H](C(=O)NN=Cc2ccc3c(c2)OCO3)Cc2c1[nH]c1ccccc21 :: 30
CCOC(=O)[C@H]1Cc2c([nH]c3ccccc23)[C@@H](C)N1 :: 30
CCOC(=O)C1Cc2c([nH]c3ccccc23)C(C)=N1 (stereo not drawn) :: 30
C[C@@H]1N[C@H](C(=O)NN=Cc2ccc(C(C)(C)C)cc2)Cc2c1[nH]c1ccccc21 :: 30

// next item, Cotton bollworm Mortality (%) requested
Sample CCOC(=O)C1Cc2c([nH]c3ccccc23)CN1 (stereo not drawn) , system: cotton bollworms. Its Cotton bollworm Mortality (%) is 10

src = patent US10208033B2
